Source listed as patent US20180112001A1.

# TEST_SYSTEM: T1, soluble monomeric human MUC16, truncated format encompassing the last five SEA domains of Mucin-16 (human)
# T1 construct: also called hMUC16.mmh; MUC16 "nub"
# T1 chain: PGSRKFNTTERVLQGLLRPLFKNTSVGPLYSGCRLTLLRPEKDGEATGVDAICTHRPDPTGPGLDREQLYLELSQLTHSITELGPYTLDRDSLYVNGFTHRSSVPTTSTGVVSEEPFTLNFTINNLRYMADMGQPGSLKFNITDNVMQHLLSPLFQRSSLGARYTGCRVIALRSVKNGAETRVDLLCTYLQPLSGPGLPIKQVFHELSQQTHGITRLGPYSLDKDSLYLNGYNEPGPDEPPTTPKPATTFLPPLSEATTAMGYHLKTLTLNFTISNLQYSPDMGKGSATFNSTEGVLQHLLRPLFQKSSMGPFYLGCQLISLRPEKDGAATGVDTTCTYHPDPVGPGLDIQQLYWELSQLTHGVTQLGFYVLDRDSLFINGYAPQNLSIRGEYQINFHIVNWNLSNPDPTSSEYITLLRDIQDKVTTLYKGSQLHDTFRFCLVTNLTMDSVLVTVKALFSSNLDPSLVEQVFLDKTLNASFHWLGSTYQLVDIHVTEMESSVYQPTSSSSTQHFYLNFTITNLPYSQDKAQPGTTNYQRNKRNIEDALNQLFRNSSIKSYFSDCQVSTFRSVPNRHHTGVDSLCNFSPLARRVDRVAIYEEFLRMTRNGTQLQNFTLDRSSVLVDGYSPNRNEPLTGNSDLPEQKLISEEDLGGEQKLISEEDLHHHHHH
# ASSAY_PROCEDURE: SPR Biacore, antibody captured, soluble monomeric hMUC16.mmh injected, 25C
MEASUREMENT_LABEL: koff (s⁻¹)
Give bare numbers, in s⁻¹.

{"BINDER": "H1H8794P (antibody, V domains shown, Human IgG1 (H1H)) VH: QVQLVESGGGLVKPGGSLRLSCAASGFTFRDYSMSWIRQAPGKGLEWVSYVTFFNSAIYYADSVKGRFTISRDNAKNSLYLQMNSLRAEDTAVYYCAREREPIVGGFDYWGQGTLVTVSS VL: DIQMTQSPSSLSASVGDRVTITCRASQSINSYLNWYQQKPGKAPKLLIYAASSLQGGVPSRFSGGGSGTDFTLTITSLQPEDFATFYCQQSYSSPPITFGQGTRLEIK", "UNIT_INFO": "s⁻¹", "TEST_RESULT": 0.000279}

Go through the items and report each one's koff.
1. H1H8755P (antibody, human IgG1, V domains shown, Human IgG1 (H1H)) VH: EVQLVESGGGLVQPGRSLRLSCAASGFTFNDYAMHWVRQSPGKGLEWVSGIDWNGGSIDYADSVKGRFTISRDTAKNSLYLQMNSLKVEDTALYYCAKDIGHWNYIGGMDVWGQGTTVTVSS VL: DIQMTQSPSSLSASVGDRVTITCRASQSINIYLNWYQQKPGKAPKFLIYAASSLQTGVPSRFSGSGSGTDFTLTISSLEPEDFATYYCQHSYSTPPITFGQGTRLEIK
2. H1H8770P (antibody, human IgG1, V domains shown, Human IgG1 (H1H)) VH: QVQLVESGGGVVQPGRSLRLSCAASGFTFSDHGMHWVRQAPGKGLEWVAVISYHGSNKHYADSVKGRFTISRDNSKNALYLQMNSLRPEDTAMYYCAKDGYDFWNGYSLFDYWGQGTLVTVSS VL: DIQMTQSPSSLSASVGDRVTITCRASQSISNYLNWYQQKPGKAPKLLIYTASNLLSGVPSRFSGSGSGTDFTLTISSLQPEDFATYYCQQSYSTPPITFGQGTKLEIK

result:
1: 0.000149; 2: 0.000308
